# tested.on: T1, CD133 (prominin-1) (Homo sapiens, UniProt O43490 O43490:20-865)
# T1 sequence: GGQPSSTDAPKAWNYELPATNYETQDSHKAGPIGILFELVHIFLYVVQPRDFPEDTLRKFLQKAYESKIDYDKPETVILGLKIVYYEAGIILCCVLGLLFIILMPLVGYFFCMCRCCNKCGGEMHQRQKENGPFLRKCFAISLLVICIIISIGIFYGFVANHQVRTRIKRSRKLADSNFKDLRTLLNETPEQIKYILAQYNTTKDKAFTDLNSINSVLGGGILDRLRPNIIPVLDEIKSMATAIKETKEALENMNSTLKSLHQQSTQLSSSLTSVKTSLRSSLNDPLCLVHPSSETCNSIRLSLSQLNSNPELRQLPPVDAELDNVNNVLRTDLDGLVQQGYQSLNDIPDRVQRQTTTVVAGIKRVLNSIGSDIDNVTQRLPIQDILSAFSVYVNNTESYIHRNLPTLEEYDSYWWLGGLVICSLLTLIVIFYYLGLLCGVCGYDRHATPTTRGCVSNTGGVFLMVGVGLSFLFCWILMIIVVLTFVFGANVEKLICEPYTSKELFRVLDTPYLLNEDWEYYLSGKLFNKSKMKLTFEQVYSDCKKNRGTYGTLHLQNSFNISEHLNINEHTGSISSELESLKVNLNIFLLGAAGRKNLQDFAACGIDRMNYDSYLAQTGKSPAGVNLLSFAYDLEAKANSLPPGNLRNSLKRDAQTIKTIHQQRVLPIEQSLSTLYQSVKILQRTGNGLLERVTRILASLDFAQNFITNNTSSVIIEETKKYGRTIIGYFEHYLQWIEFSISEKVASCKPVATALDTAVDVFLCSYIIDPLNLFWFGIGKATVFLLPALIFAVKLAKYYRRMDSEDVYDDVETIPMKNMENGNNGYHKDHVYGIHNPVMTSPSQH
# test.name: flow; Hep3B cells; 37 C 30 min, DPBS + MgCl2
# experimental.setup: tags: endogenous CD133 on CD133-positive HT-29 or Hep3B cells (ATCC); label: 5'-DY647
Answer each item with its documented Kd.

CAGAACGUAUACUAUUCUG (ssRNA, 2'-F pyrimidines; 3'-inverted dT) [CD133-2-1] | 52 nM

# context switch: different binder, same Kd
Exercise: Record request: Kd value, item CCCUCCUACAUAGGG (ssRNA, 2'-F pyrimidines; 3'-inverted dT) [CD133-1-2-2]
Key: 32 nM
